# credit: ChEMBL document CHEMBL5154929

Recorded Tmax by entry
Assay: Tmax in Kunming mouse plasma at 10 mg/kg, iv administered as single dose measured after 5 to 360 mins by HPLC analysis
Assay type: ADME, organism-based
Settings: time 5-360 min
Report the figure in min without appending any unit label.

compound: COc1cc([C@@H]2c3cc4c(cc3[C@@H](O[C@@H]3O[C@@H]5CO[C@@H](C)O[C@H]5[C@H](O)[C@H]3O)[C@H]3COC(=O)[C@H]23)OCO4)cc(OC)c1O [ETOPOSIDE]
reported-value: 5

// next entry
Quick note, Tmax for O=C1c2c[n+]([O-])c3ccccc3c2C(=O)c2c1c1ccccc1n2Cc1cn([C@@H]2C[C@H](O)[C@@H](CO)O2)nn1 landed at 5
